target: T1, Human CD40 antigen (recombinant, BLI) (human, UniProt P25942 21-193); experiment: BLI, VHH-His on anti-His tips, human CD40 in solution;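 further: kinetics measured at 30 °C in PBS pH 7.2, association tracked for 200 s, then dissociation followed in PBS lacking CD40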
T1 construct: also called rh-CD40
T1 sequence (P25942 21-193 limits assumed): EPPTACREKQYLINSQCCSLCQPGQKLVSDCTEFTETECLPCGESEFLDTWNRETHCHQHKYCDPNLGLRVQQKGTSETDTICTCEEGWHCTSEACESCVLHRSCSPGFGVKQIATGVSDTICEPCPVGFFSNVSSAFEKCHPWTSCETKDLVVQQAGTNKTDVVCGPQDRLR
Each entry below carries its reported koff.
Report the value in s⁻¹ with no unit label.

Field: example entries. Status: answers known.
- Binder: "pgDD40-HZ-47 (VHH, not shown: small tags and cut ends) VHH: QVQLVESGGGLVQPGGSMRLSCSASGFSISVYWMSWVRRAPGKGLEWVSNLGADGVTAQYSDSVKGRFTIARDTAKNTLYLQMNSLKPEDTAVYYCNAMTGMNPAEEEAYWGQGTQVTVSS"
  Units: "s⁻¹"
  koff: 0.000625
- Binder: "pgDD40-SZ-12 (VHH, not shown: small tags and cut ends) VHH: EVQLVESGGGLVQPGGSLKLSCAASGFAFSRYTMSWVRQAPGKGLEWVSGIDSGGGRTSYINSVKGRFTISRDNAKNTLYLQMNSLKPEDTAVYHCAQGGDSGSYYRTSWGQGTQVTVSS"
  Units: "s⁻¹"
  koff: 0.000806
- Binder: "pgDD40-HZ-15 (VHH, not shown: small tags and cut ends) VHH: EVQLVESGGGLVQAGGSLRLSCAASGFTFDDYAIGWFRQAPGKEREGVSCLSKNVGNTYYADSVKGRFTISSDNAKNTVYLQMNSLKPEDTAVYYCAKGSGYGCYDFPRYAVWGQGTQVTVSS"
  Units: "s⁻¹"
  koff: 0.0011
- Binder: "pgDD40-SZ-3 (VHH, not shown: small tags and cut ends) VHH: QVQLVESGGGLVQAGDSLRLSCTASGRAFNTYTMAWFRQAPGKERDFVAAISRDGTITHYADSVKGRFTTTRDNAKNTMYLQMSSLKYDDTAVYYCAARRVGAVPERESAYEHWGQGTQVTVSS"
  Units: "s⁻¹"
  koff: "7.65e-05"
- Binder: "pgDD40-SZ-7 (VHH, not shown: small tags and cut ends) VHH: QVQLVESGGALAQPGGSLRLSCEASATVRSVNAMAWYRQGPGKPRELVANITSGDTTYYADSVKGRFTLSREGARNTVYLQMNSLKPEDTAVYQCNIHYTSTGGIRRDYWGRGTQVTVSS"
  Units: "s⁻¹"
  koff: "1e-06"
- Binder: "pgDD40-HZ-58 (VHH, not shown: small tags and cut ends) VHH: QVQLVESGGGLVQPGESLTLSCVTSGFVFSNHWMYWDRQAPGKGLEWVADINLGGEMTYYSNSVKGRFTISRDNAKNTVSLRMDNLKVEDTAVYFCAANQQTPPYGLGSREYDYDYWGQGTQVTVSS"
  Units: "s⁻¹"
  koff: "3.32e-05"

Ask | Please report koff for the following binder: pgDD40-HZ-28 (VHH, not shown: small tags and cut ends) VHH: EVQLVESGGGLVQAGGSLRLSCVASERTFTPVRMGWFRQAPGKEREIVAAITWSDGSTYYADAVKGRFTISRDNALNAVYLQIDSLKPEDTAVYVCAASTSPYSTHLQFRYWGQGTQVTVSS
Reply | 0.00372
